Kindly state viability, T/C for each of the entries shown.
Test system: NCI-H510 multicellular tumor spheroid growth, % test/control
Assay: Anticancer human tumor NCI-H510 cell line growth inhibition [Asc];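 further: spheroids exposed to agents for 7 days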;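 on viability, T/C: 100% = DMSO vehicle control wells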
Conditions: second compound 0.01 µM; first compound 0.0316 µM; stronger effect = lower value
Record the value in %, omitting the unit from your answer.

Param readout= viability, T/C; system= NCI-H510 multicellular tumor spheroid growth, % test/control; entry= O=C(c1cc(Cc2n[nH]c(=O)c3ccccc23)ccc1F)N1CCN(C(=O)C2CC2)CC1 + CNC(C)C(=O)NC1CN(S(=O)(=O)c2cccc(S(=O)(=O)N3CCC4CCC(C(=O)NC(c5ccccc5)c5ccccc5)N4C(=O)C(NC(=O)C(C)NC)C3)c2)CCC2CCC(C(=O)NC(c3ccccc3)c3ccccc3)N2C1=O ; returns value.
103

Missing value: viability, T/C, NCI-H510 multicellular tumor spheroid growth, % test/control, entry C=CC(=O)N1CCN(c2nc(=O)n(-c3c(C)ccnc3C(C)C)c3nc(-c4c(O)cccc4F)c(F)cc23)C(C)C1 (configuration not stated) + CNC(C)C(=O)NC1CN(S(=O)(=O)c2cccc(S(=O)(=O)N3CCC4CCC(C(=O)NC(c5ccccc5)c5ccccc5)N4C(=O)C(NC(=O)C(C)NC)C3)c2)CCC2CCC(C(=O)NC(c3ccccc3)c3ccccc3)N2C1=O . Fill in?
115

###

Tested on: NCI-H510 multicellular tumor spheroid growth, % test/control
Experiment: Anticancer human tumor NCI-H510 cell line growth inhibition [Asc];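 further: spheroids exposed to agents for 7 days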
Conditions: curve of first compound; second compound 0.1 µM
METRIC_NAME: IC50

Could you share which IC50 value was measured for O=C(c1ccc(F)c(F)c1Nc1ccc(I)cc1F)N1CC(O)([C@@H]2CCCCN2)C1 + CNC(C)C(=O)NC1CN(S(=O)(=O)c2cccc(S(=O)(=O)N3CCC4CCC(C(=O)NC(c5ccccc5)c5ccccc5)N4C(=O)C(NC(=O)C(C)NC)C3)c2)CCC2CCC(C(=O)NC(c3ccccc3)c3ccccc3)N2C1=O ?
> 1000 nM

Recorded IC50 for C=C(F)C(=O)N1CCN(c2nc(OCC3CCCN3C)nc3c2CCN(c2cccc4cccc(Cl)c24)C3)CC1CC#N (stereo not drawn) + Cc1c(S(C)(=O)=O)c(-c2cc(F)cc(N3CCN(c4ccc(NS(=O)(=O)c5ccc(NC(CCN6CCC(C(=O)OCCCP(=O)(O)O)CC6)CSc6ccccc6)c(S(=O)(=O)C(F)(F)F)c5)cc4)CC3)c2)c(-c2ccc(Cl)cc2)n1C(C)C , please?
693 nM

Give its IC50 value. Item: CNC(C)C(=O)NC1CN(S(=O)(=O)c2cccc(S(=O)(=O)N3CCC4CCC(C(=O)NC(c5ccccc5)c5ccccc5)N4C(=O)C(NC(=O)C(C)NC)C3)c2)CCC2CCC(C(=O)NC(c3ccccc3)c3ccccc3)N2C1=O (stereo not drawn) + Cc1c(S(C)(=O)=O)c(-c2cc(F)cc(N3CCN(c4ccc(NS(=O)(=O)c5ccc(NC(CCN6CCC(C(=O)OCCCP(=O)(O)O)CC6)CSc6ccccc6)c(S(=O)(=O)C(F)(F)F)c5)cc4)CC3)c2)c(-c2ccc(Cl)cc2)n1C(C)C
> 1000 nM

###

Kindly supply the reported viability, T/C values for the records listed here.
Test system: NCI-H510 multicellular tumor spheroid growth, % test/control
Assay: Anticancer human tumor NCI-H510 cell line growth inhibition [Asc];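 further: spheroids exposed to agents for 7 days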;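 on viability, T/C: 100% = DMSO vehicle control wells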
Settings: second compound 0.01 µM; first compound 0.0316 µM; stronger effect = lower value
Text: Multicellular complex tumor spheroid response to apoptosis pathway targeting inhibitors Alrizomadlin, Pelcitoclax, and Dasminapant in combination with a variety of drugs and investigational agents in selected tumor cell lines […] Compounds. […] If the clinical Cmax for an agent had not been determined, the highest concentration tested was 10 microM. […]
Give just the number in %; leave the unit off.

NCI-H510 multicellular tumor spheroid growth, % test/control / viability, T/C / O=C(c1ccc(F)c(F)c1Nc1ccc(I)cc1F)N1CC(O)([C@@H]2CCCCN2)C1 + CNC(C)C(=O)NC1CN(S(=O)(=O)c2cccc(S(=O)(=O)N3CCC4CCC(C(=O)NC(c5ccccc5)c5ccccc5)N4C(=O)C(NC(=O)C(C)NC)C3)c2)CCC2CCC(C(=O)NC(c3ccccc3)c3ccccc3)N2C1=O : value?
102

Can you look up viability, T/C on NCI-H510 multicellular tumor spheroid growth, % test/control for CCN1CCN(Cc2ccc(Nc3ncc(F)c(-c4cc(F)c5nc(C)n(C(C)C)c5c4)n3)nc2)CC1 + CNC(C)C(=O)NC1CN(S(=O)(=O)c2cccc(S(=O)(=O)N3CCC4CCC(C(=O)NC(c5ccccc5)c5ccccc5)N4C(=O)C(NC(=O)C(C)NC)C3)c2)CCC2CCC(C(=O)NC(c3ccccc3)c3ccccc3)N2C1=O ?
124

Lookup: viability, T/C / NCI-H510 multicellular tumor spheroid growth, % test/control / COc1c(OCCCN2CCOCC2)ccc2c3n(c(=NC(=O)c4cnc(N)nc4)nc12)CCN3 + CNC(C)C(=O)NC1CN(S(=O)(=O)c2cccc(S(=O)(=O)N3CCC4CCC(C(=O)NC(c5ccccc5)c5ccccc5)N4C(=O)C(NC(=O)C(C)NC)C3)c2)CCC2CCC(C(=O)NC(c3ccccc3)c3ccccc3)N2C1=O
118

Notebook: pull reported viability, T/C for NCI-H510 multicellular tumor spheroid growth, % test/control, entry C=C(F)C(=O)N1CCN(c2nc(OCC3CCCN3C)nc3c2CCN(c2cccc4cccc(Cl)c24)C3)CC1CC#N (configuration not stated) + CNC(C)C(=O)NC1CN(S(=O)(=O)c2cccc(S(=O)(=O)N3CCC4CCC(C(=O)NC(c5ccccc5)c5ccccc5)N4C(=O)C(NC(=O)C(C)NC)C3)c2)CCC2CCC(C(=O)NC(c3ccccc3)c3ccccc3)N2C1=O
125

Look up viability, T/C with NCI-H510 multicellular tumor spheroid growth, % test/control for this molecule: NC1CCC(NC2CC2c2ccccc2)CC1 (configuration not stated) + CNC(C)C(=O)NC1CN(S(=O)(=O)c2cccc(S(=O)(=O)N3CCC4CCC(C(=O)NC(c5ccccc5)c5ccccc5)N4C(=O)C(NC(=O)C(C)NC)C3)c2)CCC2CCC(C(=O)NC(c3ccccc3)c3ccccc3)N2C1=O
105

Quick check: viability, T/C on NCI-H510 multicellular tumor spheroid growth, % test/control, item C#Cc1c(F)ccc2cc(O)cc(-c3ncc4c(N5CC6CCC(C5)N6)nc(OCC56CCCN5CC(F)C6)nc4c3F)c12 (configuration not stated) + CNC(C)C(=O)NC1CN(S(=O)(=O)c2cccc(S(=O)(=O)N3CCC4CCC(C(=O)NC(c5ccccc5)c5ccccc5)N4C(=O)C(NC(=O)C(C)NC)C3)c2)CCC2CCC(C(=O)NC(c3ccccc3)c3ccccc3)N2C1=O ?
109

// map Cn1ncnc1[C@H]1c2n[nH]c(=O)c3cc(F)cc(c23)N[C@@H]1c1ccc(F)cc1 + CNC(C)C(=O)NC1CN(S(=O)(=O)c2cccc(S(=O)(=O)N3CCC4CCC(C(=O)NC(c5ccccc5)c5ccccc5)N4C(=O)C(NC(=O)C(C)NC)C3)c2)CCC2CCC(C(=O)NC(c3ccccc3)c3ccccc3)N2C1=O to recorded viability, T/C (system: NCI-H510 multicellular tumor spheroid growth, % test/control)
72.2

###

System: NCI-H510 multicellular tumor spheroid growth, % test/control
Experiment: Anticancer human tumor NCI-H510 cell line growth inhibition [Asc];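 further: spheroids exposed to agents for 7 days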;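 on viability, T/C: 100% = DMSO vehicle control wells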
Details: second compound 0.01 µM; first compound 0.00316 µM; stronger effect = lower value
METRIC_NAME: viability, T/C (%)
Report as a plain number; the unit % is understood.

Give NCI-H510 multicellular tumor spheroid growth, % test/control viability, T/C for COc1c(OCCCN2CCOCC2)ccc2c3n(c(=NC(=O)c4cnc(N)nc4)nc12)CCN3 + CNC(C)C(=O)NC1CN(S(=O)(=O)c2cccc(S(=O)(=O)N3CCC4CCC(C(=O)NC(c5ccccc5)c5ccccc5)N4C(=O)C(NC(=O)C(C)NC)C3)c2)CCC2CCC(C(=O)NC(c3ccccc3)c3ccccc3)N2C1=O
119

Form: Entry = O=C(c1ccc(F)c(F)c1Nc1ccc(I)cc1F)N1CC(O)([C@@H]2CCCCN2)C1 + CNC(C)C(=O)NC1CN(S(=O)(=O)c2cccc(S(=O)(=O)N3CCC4CCC(C(=O)NC(c5ccccc5)c5ccccc5)N4C(=O)C(NC(=O)C(C)NC)C3)c2)CCC2CCC(C(=O)NC(c3ccccc3)c3ccccc3)N2C1=O | System = NCI-H510 multicellular tumor spheroid growth, % test/control | viability, T/C = ____
98.5

Please provide the recorded viability, T/C for NC1CCC(NC2CC2c2ccccc2)CC1 (stereo not given) + CNC(C)C(=O)NC1CN(S(=O)(=O)c2cccc(S(=O)(=O)N3CCC4CCC(C(=O)NC(c5ccccc5)c5ccccc5)N4C(=O)C(NC(=O)C(C)NC)C3)c2)CCC2CCC(C(=O)NC(c3ccccc3)c3ccccc3)N2C1=O , tested on NCI-H510 multicellular tumor spheroid growth, % test/control.
97.4

// map CCN1CCN(Cc2ccc(Nc3ncc(F)c(-c4cc(F)c5nc(C)n(C(C)C)c5c4)n3)nc2)CC1 + CNC(C)C(=O)NC1CN(S(=O)(=O)c2cccc(S(=O)(=O)N3CCC4CCC(C(=O)NC(c5ccccc5)c5ccccc5)N4C(=O)C(NC(=O)C(C)NC)C3)c2)CCC2CCC(C(=O)NC(c3ccccc3)c3ccccc3)N2C1=O to recorded viability, T/C (system: NCI-H510 multicellular tumor spheroid growth, % test/control)
109

Please provide the recorded viability, T/C for Cn1ncnc1[C@H]1c2n[nH]c(=O)c3cc(F)cc(c23)N[C@@H]1c1ccc(F)cc1 + CNC(C)C(=O)NC1CN(S(=O)(=O)c2cccc(S(=O)(=O)N3CCC4CCC(C(=O)NC(c5ccccc5)c5ccccc5)N4C(=O)C(NC(=O)C(C)NC)C3)c2)CCC2CCC(C(=O)NC(c3ccccc3)c3ccccc3)N2C1=O , tested on NCI-H510 multicellular tumor spheroid growth, % test/control.
105
